- system: recombinant USP1 protein (Homo sapiens, UniProt O94782, DEL125-138/DEL229-408/DEL608-737)
- Sequence (O94782 with tags, fused parts or gaps DEL125-138/DEL229-408/DEL608-737): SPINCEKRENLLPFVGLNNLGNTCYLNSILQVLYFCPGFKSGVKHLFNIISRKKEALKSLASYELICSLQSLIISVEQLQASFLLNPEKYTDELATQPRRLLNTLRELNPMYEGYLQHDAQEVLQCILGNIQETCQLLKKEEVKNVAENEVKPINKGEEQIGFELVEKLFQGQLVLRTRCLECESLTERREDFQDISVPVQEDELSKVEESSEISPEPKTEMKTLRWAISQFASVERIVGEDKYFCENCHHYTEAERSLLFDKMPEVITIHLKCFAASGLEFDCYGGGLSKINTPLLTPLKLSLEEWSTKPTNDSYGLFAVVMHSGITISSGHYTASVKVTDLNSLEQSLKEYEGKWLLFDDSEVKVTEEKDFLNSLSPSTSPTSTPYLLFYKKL
- assay: Binding affinity to recombinant USP1 protein by differential scanning fluorimetry
- measurement-setup: compound 100 µM; 0.03 mg/mL USP1 (Δ1-66, Δ125-138, Δ229-408, Δ608-737); Tm with compound minus Tm with DMSO; read-out: ΔTm (°C)
measure-name: ΔTm at 100 µM

What value of ΔTm at 100 µM has been reported for the following compound? CNC1CN(C(=O)c2cc3cnc(-c4c(OC)ncnc4C4CC4)nc3n2Cc2ccc(-c3nc(C(F)(F)F)cn3C)cc2)C1
> 5 °C

What value of ΔTm at 100 µM has been reported for the following compound? COc1ncnc(C2CC2)c1-c1ncc2cc(C(=O)N[C@H]3CN(C4CC4)C[C@H]3F)n(Cc3ccc(-c4nc(C(F)(F)F)cn4C)cc3)c2n1
> 5 °C

What value of ΔTm at 100 µM has been reported for the following compound? CNC1CN(C(=O)c2cc3cnc(-c4c(OC)ncnc4C4CC4)nc3n2Cc2ccc(-c3nc(C(F)(F)F)cn3C(C)C)cc2)C1
> 5 °C

What value of ΔTm at 100 µM has been reported for the following compound? CCn1cc(C(F)(F)F)nc1-c1ccc(Cn2c(C(=O)NC)cc3cnc(-c4c(OC)ncnc4C4CC4)nc32)cc1
> 5 °C

What value of ΔTm at 100 µM has been reported for the following compound? COc1ncnc(C2CC2)c1-c1ncc2cc(C(=O)NC3CCN(C)CC3(F)F)n(Cc3ccc(-c4nc(C(F)(F)F)cn4C)cc3)c2n1 (stereo not shown)
> 5 °C

What value of ΔTm at 100 µM has been reported for the following compound? CCNC(=O)c1cc2cnc(-c3c(OC)ncnc3C3CC3)nc2n1Cc1ccc(-c2nc(C(F)(F)F)cn2C(C)C)cc1
> 5 °C

What value of ΔTm at 100 µM has been reported for the following compound? COc1ncnc(C2CC2)c1-c1ncc2cc(C(=O)N3CCS(=O)(=O)CC3)n(Cc3ccc(-c4nc(C(F)(F)F)cn4C(C)C)cc3)c2n1
> 5 °C

What value of ΔTm at 100 µM has been reported for the following compound? COc1ncnc(C2CC2)c1-c1ncc2cc(C(=O)Nc3cnn(C)c3)n(Cc3ccc(-c4nc(C(F)(F)F)cn4C(C)C)cc3)c2n1
> 5 °C

What value of ΔTm at 100 µM has been reported for the following compound? COc1ncnc(C2CC2)c1-c1ncc2cc(C(=O)N3CC[C@@H](N(C)C)C3)n(Cc3ccc(-c4nc(C(F)(F)F)cn4C(C)C)cc3)c2n1
> 5 °C

What value of ΔTm at 100 µM has been reported for the following compound? COc1ncnc(C2CC2)c1-c1ncc2cc(C(=O)NC3CCC(N(C)C)CC3)n(Cc3ccc(-c4nc(C(F)(F)F)cn4C)cc3)c2n1 (stereo not shown)
> 5 °C

What value of ΔTm at 100 µM has been reported for the following compound? CNC(=O)c1cc2cnc(-c3c(OC)ncnc3C3CC3)nc2n1Cc1ccc(-c2nc(C(F)(F)F)cn2C(C)C)cc1
> 5 °C

What value of ΔTm at 100 µM has been reported for the following compound? COc1ncnc(C2CC2)c1-c1ncc2cc(C(=O)N[C@H](C)CO)n(Cc3ccc(-c4nc(C(F)(F)F)cn4C)cc3)c2n1
> 5 °C

What value of ΔTm at 100 µM has been reported for the following compound? CNC(=O)c1cc2cnc(-c3c(OC4CC4)ncnc3C3CC3)nc2n1Cc1ccc(-c2nc(C(F)(F)F)cn2C(C)C)cc1
> 5 °C
